meta.source: the Human Domainome abundance scans (Beltran et al. 2025)

Listing of recorded abundance fitness by entry.
B1: Advillin, residues 785 to 819; numbered along this chain, O75366 (parent)
chain: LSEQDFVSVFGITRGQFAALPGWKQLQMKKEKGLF

# Variants of: B1
# Assay: abundance fitness (aPCA) (normalised: wild type 0, dead -1); higher = more abundant; growth selection in yeast, the domain comes from the species named
# Stated Conditions: Homo sapiens
Give a plain numeric answer without units written out.

// abundance fitness lookup, variant = S2Y , result: -0.505

Looking up F6K , I found its abundance fitness recorded as -0.514

Kindly note the recorded abundance fitness for I12L , which is -0.101

Query K30P yields abundance fitness of -0.453

response.value for L34H (field: abundance fitness) = 0.042

Looking up F6I , I found its abundance fitness recorded as -0.162

Form: variant = Q25W ; abundance fitness = -1.4

Just so you know, measured abundance fitness for R14H came out at -0.262

More entries:
The measured abundance fitness associated with E3L reads -0.304

Field abundance fitness (entry Q27A ) reads -0.125

Data point: Q27M ; abundance fitness = -0.293

abundance fitness measured on K30Q = 0.026

get_value(item= G11P , readout=abundance fitness) returns -0.797

Just so you know, measured abundance fitness for A19N came out at -0.052

The recorded abundance fitness for entry E31D equals 0.02

Value of measured abundance fitness for the entry F17C : -0.435

// abundance fitness value for F17K : -0.479

abundance fitness measured on T13I = -0.475
